Measured pest or weed control at 500 g/ha, listed per entry.
# Test system: barnyardgrass (Echinochloa crus-galli)
# assay.name: Test A postemergence
# Format: in vivo
# details: Echinochloa crus-galli, post-emergence, 240 h, 500 g ai/ha, postemergence; 0 to 100 scale, 0 is no effect, 100 is complete control; read-out: Barnyardgrass plant response rating
Respond numerically; units are % and should not be typed.

For orientation, consider the following solved cases.
CN1C[C@H](c2ccc(F)c(F)c2)[C@@H](C(=S)Nc2ccccc2F)C1=O (racemic): 90
CN1C[C@H](c2cc(C(F)F)cs2)[C@@H](C(=O)Nc2ccccc2F)C1=O: 90
N#Cc1cc([C@H]2CNC(=O)[C@@H]2C(=O)Nc2ccccc2F)ccc1F: 100
CSc1ccccc1NC(=O)[C@H]1C(=O)N(C)C[C@@H]1c1ccc(C#N)cc1: 70

The compound `Cc1cc([C@H]2CN(C)C(=O)[C@@H]2C(=O)Nc2ccccc2F)no1` showed pest or weed control at 500 g/ha equal to 20

The compound `CN1C[C@H](c2cc(F)cc(F)c2)[C@@H](C(=O)Nc2cnccc2Cl)C1=O` showed pest or weed control at 500 g/ha equal to 0

The compound `CN1C[C@H](c2cc(F)cc(F)c2)[C@@H](C(=O)Nc2ccncc2F)C1=O` showed pest or weed control at 500 g/ha equal to 0

The compound `CN1C[C@H](c2cscn2)[C@@H](C(=O)Nc2ccccc2F)C1=O` showed pest or weed control at 500 g/ha equal to 0

The compound `Cc1cccc([C@H]2CN(C)C(=O)[C@@H]2C(=O)Nc2ccc(F)c(F)c2F)c1` showed pest or weed control at 500 g/ha equal to 80

The compound `CN1CC[C@H](c2ccc(C(F)(F)F)cc2)[C@@H](C(=O)Nc2ccc(F)c(F)c2F)C1=O` showed pest or weed control at 500 g/ha equal to 100

The compound `O=C1NC[C@H](c2ccc(F)c(OC(F)(F)C(F)(F)Br)c2)[C@H]1C(=O)Nc1ccccc1F` showed pest or weed control at 500 g/ha equal to 80

---

Measured pest or weed control at 62.5 g/ha, listed per entry.
# Test system: giant foxtail (Setaria faberi)
# assay.name: Test G Pre-Emergence Protocol
# Type: in vivo
# details: Setaria faberi, pre-emergence, 312 h, 62.5 g ai/ha, evaluated after 13 days, 100=total damage to plant, 0=no damage to plant, read-out: plant damage rating, Foxtail, Giant
Mention the unit after the number when you answer.

For orientation, consider the following solved cases.
CN1C[C@@H](c2ccc(C(F)(F)F)nc2)[C@H](C(=O)Nc2cccc(F)n2)C1=O (racemic): 50%
CN1C[C@@H](c2ccc(C(F)(F)F)cc2)[C@H](C(=O)Nc2cn(C)nn2)C1=O (racemic): 0%
CN1C[C@H](c2ccc(C(F)(F)F)cc2)[C@@H](C(=O)Nc2cccc(F)n2)C1=O (racemic): 80%

For the next question, use this molecule.
The molecule CN1C[C@H](c2ccc(C(C)(C)C)cc2)[C@@H](C(=O)Nc2ccccc2F)C1=O (racemic) showed pest or weed control at 62.5 g/ha equal to 0%

---

# System: blackgrass (Alopecurus myosuroides)
# assay.name: Test A postemergence
# Assay type: in vivo
# details: 125 g ai/ha, postemergence; visual injury rating on 0 to 100 scale (0 no effect, 100 complete control), approx. 10 d
Measured Blackgrass plant response rating, listed per entry.

For orientation, consider the following solved cases.
O=C1NCC(c2ccc(Br)cc2)C1C(=O)Nc1ccccc1F (stereo not drawn): 0
CCc1ccc(C2CNC(=O)C2C(=O)Nc2cccc(F)c2F)cc1 (stereo not drawn): 0
O=C1NCC(c2ccc(Oc3ccccc3)cc2)C1C(=O)Nc1ccc(F)cc1F (racemic): 0
COc1ccc(N2CC(c3cccc(C(F)(F)F)c3)C(C(=O)Nc3ccccc3F)C2=O)cc1 (stereo not drawn): 0
COCc1cccc(C2CNC(=O)C2C(=O)Nc2cccc(F)c2F)c1 (stereo not drawn): 30
COc1c(F)ccc(NC(=O)C2C(=O)NCC2c2cccc(OC(F)(F)C(F)F)c2)c1F (racemic): 50

The molecule CN1CC(c2ccc3c(c2)OC(F)(F)O3)C(C(=O)Nc2cccc(F)c2F)C1=O (stereo not drawn) showed Blackgrass plant response rating equal to 60

The molecule COCc1cccc(C2CNC(=O)C2C(=O)Nc2ccccc2F)c1 (stereo not drawn) showed Blackgrass plant response rating equal to 0

The molecule O=C1NCC(c2c(F)cccc2F)C1C(=O)Nc1ccccc1F (racemic) showed Blackgrass plant response rating equal to 0

The molecule CCc1ccc(C2CNC(=O)C2C(=O)Nc2ccccc2S(C)(=O)=O)cc1 (stereo not drawn) showed Blackgrass plant response rating equal to 0

The molecule O=C1NCC(c2cc(F)cc(C(F)(F)F)c2)C1C(=O)Nc1ccccc1F (stereo not drawn) showed Blackgrass plant response rating equal to 50

The molecule O=C1NCC(c2ccc(F)cc2F)C1C(=O)Nc1ccc(F)cc1F (racemic) showed Blackgrass plant response rating equal to 0
